Source listed as PubChem BioAssay.

PROTOCOL DETAILS: small-molecule microarray binders of probe aCHRDL2, primary screen, biochemical, biotinylated probe, 635/667 nm fluorescence (AID 1100)
MEASUREMENT CONTEXT: higher = more signal
QUANTITY NAME: composite z-score
// return just the number, without any unit appended

Q) Given the entry `C=C(CCCC)/C(=C/C[C@H](OC(C)=O)c1ccc(CO)o1)c1cnc2ccccc2c1` , report its measured composite z-score.
A) -0.531

Q) Find the recorded composite z-score belonging to C[C@H]1NC(=O)[C@H](Cc2ccccc2)NC(=O)[C@@]23C(=O)N[C@@H](Cc4ccccc4)C2[C@H](C)[C@@]2(C)O[C@H]2C3/C=C/C/C=C\CNC1=O (some centres undefined) and report it.
A) -0.471

Q) Given the compound `CC(=CC1CCCCC1)[C@@H](NC(=O)c1ccc(C(F)(F)F)cc1)c1ccc(-c2ccccc2)cc1` , what is its reported composite z-score?
A) 0.848

Q) Given the entry `COc1ccccc1CN1C(=O)c2ccccc2[C@@H](C(=O)NCCN2CCOCC2)[C@@H]1c1ccc(CO)cc1` , report its measured composite z-score.
A) 0.658

Q) Item under review: `COc1cc2c(cc1OC)CN(C(=O)[C@@H]1[C@H]3C(=O)O[C@H](c4ccccc4)[C@H](c4ccccc4)N3[C@H](c3ccccc3OCCO)[C@@]13C(=O)Nc1ccc(C#CCNC(N)=O)cc13)CC2` . Reported composite z-score?
A) 0.281

Q) Could you tell me which composite z-score is on file for C#CCN(C(/C=C/c1ccccc1)CO)C(C(=O)O)c1ccccc1 (centres undefined) ?
A) -0.447

Q) Record request: composite z-score value, item `O=C1N(CCS(=O)(=O)c2ccccc2)Cc2ccccc2[C@H]2OC(c3ccc(OCCCO)cc3)=N[C@@]12CCS(=O)(=O)c1ccccc1`
A) 1.13

Q) Look up composite z-score for this compound: `COc1c(C)cc(-c2cc3c(c(-c4ccc(Oc5ccccc5)cc4)n2)[Si](C(C)C)(C(C)C)OC3)cc1C`
A) 0.0857

Q) // returns reported composite z-score for input `COc1ccc([Si](C)(C)[C@@H]2[C@@H](CC(=O)N(CCO)Cc3ccccc3)O[C@]3(C(=O)N(C)c4ccccc43)[C@H]2C)cc1`
A) 0.0207

====

PROTOCOL DETAILS: small-molecule binders of probe aNOTCH3, primary screen, biochemical, small-molecule microarray, 635/667 nm fluorescence (AID 1120);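 further: probe is a biotin-tagged antibody raised against NOTCH3 rather than NOTCH3 protein; score merges spot fluorescence near 667 nm with spot signal to noise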
MEASUREMENT CONTEXT: higher = more signal
QUANTITY NAME: composite z-score
Enter a number only.

Q) Recorded composite z-score for `COCCOC(=O)N1C(=O)[C@@]2(c3cc(C#Cc4ccc(OC)cc4)ccc31)[C@H](C(=O)N1CCN(c3ncccn3)CC1)[C@H]1C(=O)O[C@H](c3ccccc3)[C@H](c3ccccc3)N1[C@@H]2c1ccc(O)cc1` , please?
A) -0.112

Q) What does the record list as composite z-score for `O=c1cccc(CCc2ccccc2)o1` ?
A) -0.301

Q) Entry [N-]=[N+]=NCc1ccccc1C[C@]1(C(=O)NCC(O)CO)N=C(c2ccc(OCCCO)cc2)O[C@H]1c1ccccc1N=[N+]=[N-] (stereo partly drawn) has what composite z-score?
A) 0.254

Q) Need composite z-score of `O=c1oc(-c2ccccc2)nc2cc(Br)ccc12` , thanks.
A) -0.0647

Q) Would you kindly share the measured composite z-score for COc1ccc(NN2C(C(O)c3ccc(OC)c(OCc4ccccc4)c3)C=CC3C(=O)N(C4CCCCC4)C(=O)C32)cc1 (stereo not drawn) ?
A) 0.252

Q) Given the molecule O=C1OCCC=C[C@H]2OC34C=CCN(Cc5ccccc5)C(=O)[C@H]3N(CCCO)C(=O)[C@@H]4C12 (stereo partly drawn) , what is its reported composite z-score?
A) -0.275

Q) composite z-score for `N[C@@H](Cc1ccccc1)Cn1cc(-c2ccccc2)nn1` ?
A) 0.0879

Q) Any idea what composite z-score was measured for `COCCCNC(=O)[C@@]1(c2ccc([N+](=O)[O-])cc2)CC(=O)N(CC23CC4CC(CC(C4)C2)C3)[C@@H]1c1ccc(CO)cc1` ?
A) 0.204
